target: G protein-coupled receptor kinase 6 (Homo sapiens) (UniProt P43250); conditions: at 1 µM;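 note: values are averaged percent inhibition of GRK6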
Sequence (P43250 whole entry, looked up): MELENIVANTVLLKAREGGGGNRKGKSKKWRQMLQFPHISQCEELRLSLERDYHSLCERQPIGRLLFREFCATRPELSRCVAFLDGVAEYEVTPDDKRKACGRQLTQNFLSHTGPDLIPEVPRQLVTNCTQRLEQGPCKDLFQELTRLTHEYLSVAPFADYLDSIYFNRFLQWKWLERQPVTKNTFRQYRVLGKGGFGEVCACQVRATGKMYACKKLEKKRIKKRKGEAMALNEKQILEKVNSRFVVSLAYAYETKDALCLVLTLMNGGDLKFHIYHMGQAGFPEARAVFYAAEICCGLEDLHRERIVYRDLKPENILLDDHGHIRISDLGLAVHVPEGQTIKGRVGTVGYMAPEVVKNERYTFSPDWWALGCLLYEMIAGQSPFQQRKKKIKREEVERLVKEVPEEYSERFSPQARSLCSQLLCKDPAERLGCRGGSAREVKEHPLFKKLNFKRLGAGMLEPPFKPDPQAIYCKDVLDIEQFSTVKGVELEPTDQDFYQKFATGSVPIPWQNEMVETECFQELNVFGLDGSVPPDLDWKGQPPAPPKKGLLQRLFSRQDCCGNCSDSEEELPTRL

| molSmiles | inhibition (%) |
| --- | --- |
| COc1ccccc1-c1cc(/C=C2\C(=O)Nc3ncc(Br)cc32)cc(Br)c1O | 30.3 |
| Cc1ccc(-c2cc3c(NC(=O)C4CC4)ncnc3o2)cc1 | -1.16 |
| COc1cc(Nc2ncc(-c3ccccc3)o2)cc(OC)c1 | -0.63 |
| CS(=O)(=O)CCNCc1ccc(-c2ccc3ncnc(Nc4ccc(OCc5cccc(C(F)(F)F)c5)cc4)c3c2)o1 | 3.84 |
| Fc1cccc(COc2ccc(Nc3ncncc3C#Cc3ccccc3)cc2Cl)c1 | 9.97 |
| COc1cc(N2CCN(C(C)C)CC2)ccc1Nc1nc(Nc2cccc(F)c2C(=O)O)c2cc[nH]c2n1 | 10.8 |
| CS(=O)(=O)Nc1ccc(-c2ccc3c(NC(=O)C4CC4)n[nH]c3c2)cc1 | 1.55 |
| CS(=O)(=O)Nc1ccc(-c2cc(-c3ccccc3)cc(C(N)=O)c2N)cc1 | 1.69 |
| COc1ccc2ncn(-c3cc(O[C@H](C)c4ccccc4C(F)(F)F)c(C(N)=O)s3)c2c1 | 1.33 |
| CCCNc1cccc(-n2ncc3c(N/N=C/c4ccncc4)ncnc32)c1 | 3.97 |
| Cc1cc(O)cc(C)c1/C=C/c1cncc(C(N)=O)c1 | 0.48 |
| NS(=O)(=O)c1cccc(N/C=C2\C(=O)Nc3ccccc32)c1 | 11.5 |
| CNC(=O)c1ncccc1Nc1nc(Nc2cc3c(cc2OC)CCCN3C(=O)CN(C)C)nc2[nH]ccc12 | 56.7 |
| O=C(Nc1n[nH]c2nnc(-c3cccnc3)cc12)C1CC1 | 0.48 |
| Cn1c(-c2nonc2N)nc2cnccc21 | 4 |
| COC(=O)Nc1nc2ccc(Oc3ccc(NC(=O)Nc4cc(C(F)(F)F)ccc4F)cc3)cc2s1 | -1.53 |
| O=C(O[C@H]1CN[C@H](C#Cc2cc3ncnc(Nc4ccc(OCc5cccc(F)c5)c(Cl)c4)c3s2)C1)N1CCOCC1 | 13.6 |
| CNC(=O)c1cncc(/C=C/c2ccccc2C)c1 | 8.41 |
| COC(=O)Nc1nc2cc(Oc3ccc(NC(=O)Nc4ccccc4)cc3)ccc2[nH]1 | 10.8 |
| Cc1cc(O)cc(C)c1/C=C/c1cncc(C(=O)OC(C)(C)C)c1 | 2.46 |
| CCn1c(-c2nonc2N)nc2cncc(C(=O)NCCNC)c21 | 5.57 |

====

test system: Proto-oncogene tyrosine-protein kinase receptor Ret (Homo sapiens), P07949 [Y791F]; conditions: at 1 µM
Sequence (P07949 whole entry Y791F): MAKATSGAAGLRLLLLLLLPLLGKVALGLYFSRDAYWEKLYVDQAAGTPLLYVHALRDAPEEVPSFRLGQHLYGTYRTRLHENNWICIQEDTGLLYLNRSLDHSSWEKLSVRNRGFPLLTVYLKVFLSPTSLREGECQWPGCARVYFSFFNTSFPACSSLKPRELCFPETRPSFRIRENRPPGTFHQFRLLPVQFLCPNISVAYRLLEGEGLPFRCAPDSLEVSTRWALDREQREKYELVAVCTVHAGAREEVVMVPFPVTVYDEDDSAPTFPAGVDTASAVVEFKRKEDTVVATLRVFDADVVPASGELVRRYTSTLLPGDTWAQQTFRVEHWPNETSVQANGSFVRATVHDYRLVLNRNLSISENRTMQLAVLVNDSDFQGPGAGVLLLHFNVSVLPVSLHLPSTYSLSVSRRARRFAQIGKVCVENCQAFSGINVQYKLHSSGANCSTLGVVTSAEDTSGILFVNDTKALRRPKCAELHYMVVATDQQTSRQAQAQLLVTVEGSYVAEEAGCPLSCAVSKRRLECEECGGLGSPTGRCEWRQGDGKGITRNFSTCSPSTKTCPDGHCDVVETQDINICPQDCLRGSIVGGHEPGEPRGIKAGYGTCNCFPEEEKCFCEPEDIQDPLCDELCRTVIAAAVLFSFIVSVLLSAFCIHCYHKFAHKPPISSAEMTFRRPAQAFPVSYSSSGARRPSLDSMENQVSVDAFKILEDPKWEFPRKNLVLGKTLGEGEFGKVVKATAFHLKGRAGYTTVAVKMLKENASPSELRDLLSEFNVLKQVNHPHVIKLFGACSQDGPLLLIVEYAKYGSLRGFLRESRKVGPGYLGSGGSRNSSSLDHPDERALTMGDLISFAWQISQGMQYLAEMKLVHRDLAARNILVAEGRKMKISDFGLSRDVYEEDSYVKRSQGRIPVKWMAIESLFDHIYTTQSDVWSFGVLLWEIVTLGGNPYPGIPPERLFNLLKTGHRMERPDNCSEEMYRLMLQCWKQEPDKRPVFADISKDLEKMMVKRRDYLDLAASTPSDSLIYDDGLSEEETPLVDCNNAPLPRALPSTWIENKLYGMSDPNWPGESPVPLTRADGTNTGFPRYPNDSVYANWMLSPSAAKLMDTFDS
Entry flag: Yes if inhibition reaches 6%; No if it does not.

| molSmiles | assignedLabel |
| --- | --- |
| CS(=O)(=O)CCNCc1ccoc1-c1ccc2ncnc(Nc3ccc(OCc4ccccc4)cc3)c2c1 | Yes |
| FC(F)(F)CNc1nccc(-c2cnn3ncccc23)n1 | No |
| CCS(=O)(=O)c1ccc(OC)c(Nc2ncc(-c3cccc(C(C)=O)c3)o2)c1 | Yes |
| COc1cc(N2CCN(C(C)C)CC2)ccc1Nc1nc(Nc2cccc3ncccc23)c2cc[nH]c2n1 | Yes |

====

Biological target: Testis-specific serine/threonine-protein kinase 1 (Homo sapiens) (UniProt Q9BXA7);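 note: reported value is the mean inhibition, from the GSK PKIS kinase screening panel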
Sequence (whole entry): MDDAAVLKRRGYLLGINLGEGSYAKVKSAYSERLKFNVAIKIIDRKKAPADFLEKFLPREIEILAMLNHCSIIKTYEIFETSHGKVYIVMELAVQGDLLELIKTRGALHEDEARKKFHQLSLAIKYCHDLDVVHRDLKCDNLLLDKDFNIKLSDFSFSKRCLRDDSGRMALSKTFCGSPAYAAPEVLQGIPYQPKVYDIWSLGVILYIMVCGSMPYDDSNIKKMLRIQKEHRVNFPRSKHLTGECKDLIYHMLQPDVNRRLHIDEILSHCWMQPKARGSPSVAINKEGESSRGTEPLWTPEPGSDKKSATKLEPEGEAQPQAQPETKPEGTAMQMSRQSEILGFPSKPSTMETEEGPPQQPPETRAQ
Settings: at 1 µM

| molecule | unitAbbrev | inhibition |
| --- | --- | --- |
| Cc1ccc(-c2cc3c(NC(=O)C4CC4)ncnc3o2)cc1 | % | 4.18 |
| CS(=O)(=O)Nc1ccc(-c2cc(-c3ccccc3)cc(C(N)=O)c2N)cc1 | % | 2.85 |
| CNC(=O)c1sc(-n2cnc3cc(OC)c(OC)cc32)cc1OCc1ccccc1C(F)(F)F | % | 1.63 |
| NC(=O)c1ccc2c(-c3ccnc(NCCCO)n3)c(-c3ccc(F)cc3)nn2c1 | % | 3.68 |
| O=C(Nc1n[nH]c2nnc(-c3cccnc3)cc12)C1CC1 | % | 1.92 |
| CS(=O)(=O)Nc1ccc(-c2ccc3c(NC(=O)C4CC4)n[nH]c3c2)cc1 | % | 2.78 |
| COc1cccc(-n2ncc3c(N/N=C/c4ccc(C(=O)NCCN(C)C)cc4)ncnc32)c1 | % | 0.43 |
| COC(=O)Nc1nc2cc(Oc3ccc(NC(=O)Nc4ccccc4)cc3)ccc2[nH]1 | % | 4.03 |
| COc1cc(Nc2ncc(-c3ccccc3)o2)cc(OC)c1 | % | 4.53 |
| CCS(=O)(=O)c1ccc(OC)c(Nc2ncc(-c3cccc(F)c3)o2)c1 | % | 5.86 |
| CCOc1ccc2c(-c3ccnc(Nc4cc(OC)cc(C(F)(F)F)c4)n3)cnn2n1 | % | 0.89 |
| O=C1Nc2ccccc2/C1=C1\CCc2cc(O)ccc21 | % | 6.96 |
| CCCNc1cccc(-n2ncc3c(N/N=C/c4ccncc4)ncnc32)c1 | % | 6.17 |
| CCN1CCC(C(=O)Nc2n[nH]c3nnc(-c4cccc(F)c4F)cc23)CC1 | % | -0.75 |
| c1ccc(-c2n[nH]cc2-c2ccnc(-c3ccc(OCCn4ccnc4)cc3)c2)nc1 | % | 2.8 |
| N#Cc1cccc(Nc2ncc(-c3ccccc3)o2)c1 | % | 5.55 |
| CN1CCC(n2cnc(-c3ccc(F)cc3)c2-c2ccnc(NCCO)n2)CC1 | % | 6.56 |
| CC1(C)CC(n2cnc(-c3ccc(F)cc3)c2-c2ccnc(N)n2)CC(C)(C)N1 | % | 2.2 |
| COC(=O)Nc1nc2ccc(Oc3ccc(NC(=O)Nc4cc(C(F)(F)F)ccc4F)cc3)cc2s1 | % | 1.02 |
| NS(=O)(=O)c1cccc(N/C=C2\C(=O)Nc3ccccc32)c1 | % | 4.78 |
| CC1=C(C(=O)Nc2ccc3[nH]ncc3c2)C(c2ccc(F)cc2)N=C(c2ccc(C(F)(F)F)nc2)N1 (stereo unspecified) | % | -0.03 |
